Measured values drawn from patent US7429660B2 for this set.

- TARGET OR TEST SYSTEM: ATM protein immunoprecipitated from HeLa cell nuclear extract (Homo sapiens, UniProt Q13315)
- Construct: ATM protein was immunoprecipitated from HeLa cell nuclear extract; endogenous in cells
- Sequence (Q13315 whole entry): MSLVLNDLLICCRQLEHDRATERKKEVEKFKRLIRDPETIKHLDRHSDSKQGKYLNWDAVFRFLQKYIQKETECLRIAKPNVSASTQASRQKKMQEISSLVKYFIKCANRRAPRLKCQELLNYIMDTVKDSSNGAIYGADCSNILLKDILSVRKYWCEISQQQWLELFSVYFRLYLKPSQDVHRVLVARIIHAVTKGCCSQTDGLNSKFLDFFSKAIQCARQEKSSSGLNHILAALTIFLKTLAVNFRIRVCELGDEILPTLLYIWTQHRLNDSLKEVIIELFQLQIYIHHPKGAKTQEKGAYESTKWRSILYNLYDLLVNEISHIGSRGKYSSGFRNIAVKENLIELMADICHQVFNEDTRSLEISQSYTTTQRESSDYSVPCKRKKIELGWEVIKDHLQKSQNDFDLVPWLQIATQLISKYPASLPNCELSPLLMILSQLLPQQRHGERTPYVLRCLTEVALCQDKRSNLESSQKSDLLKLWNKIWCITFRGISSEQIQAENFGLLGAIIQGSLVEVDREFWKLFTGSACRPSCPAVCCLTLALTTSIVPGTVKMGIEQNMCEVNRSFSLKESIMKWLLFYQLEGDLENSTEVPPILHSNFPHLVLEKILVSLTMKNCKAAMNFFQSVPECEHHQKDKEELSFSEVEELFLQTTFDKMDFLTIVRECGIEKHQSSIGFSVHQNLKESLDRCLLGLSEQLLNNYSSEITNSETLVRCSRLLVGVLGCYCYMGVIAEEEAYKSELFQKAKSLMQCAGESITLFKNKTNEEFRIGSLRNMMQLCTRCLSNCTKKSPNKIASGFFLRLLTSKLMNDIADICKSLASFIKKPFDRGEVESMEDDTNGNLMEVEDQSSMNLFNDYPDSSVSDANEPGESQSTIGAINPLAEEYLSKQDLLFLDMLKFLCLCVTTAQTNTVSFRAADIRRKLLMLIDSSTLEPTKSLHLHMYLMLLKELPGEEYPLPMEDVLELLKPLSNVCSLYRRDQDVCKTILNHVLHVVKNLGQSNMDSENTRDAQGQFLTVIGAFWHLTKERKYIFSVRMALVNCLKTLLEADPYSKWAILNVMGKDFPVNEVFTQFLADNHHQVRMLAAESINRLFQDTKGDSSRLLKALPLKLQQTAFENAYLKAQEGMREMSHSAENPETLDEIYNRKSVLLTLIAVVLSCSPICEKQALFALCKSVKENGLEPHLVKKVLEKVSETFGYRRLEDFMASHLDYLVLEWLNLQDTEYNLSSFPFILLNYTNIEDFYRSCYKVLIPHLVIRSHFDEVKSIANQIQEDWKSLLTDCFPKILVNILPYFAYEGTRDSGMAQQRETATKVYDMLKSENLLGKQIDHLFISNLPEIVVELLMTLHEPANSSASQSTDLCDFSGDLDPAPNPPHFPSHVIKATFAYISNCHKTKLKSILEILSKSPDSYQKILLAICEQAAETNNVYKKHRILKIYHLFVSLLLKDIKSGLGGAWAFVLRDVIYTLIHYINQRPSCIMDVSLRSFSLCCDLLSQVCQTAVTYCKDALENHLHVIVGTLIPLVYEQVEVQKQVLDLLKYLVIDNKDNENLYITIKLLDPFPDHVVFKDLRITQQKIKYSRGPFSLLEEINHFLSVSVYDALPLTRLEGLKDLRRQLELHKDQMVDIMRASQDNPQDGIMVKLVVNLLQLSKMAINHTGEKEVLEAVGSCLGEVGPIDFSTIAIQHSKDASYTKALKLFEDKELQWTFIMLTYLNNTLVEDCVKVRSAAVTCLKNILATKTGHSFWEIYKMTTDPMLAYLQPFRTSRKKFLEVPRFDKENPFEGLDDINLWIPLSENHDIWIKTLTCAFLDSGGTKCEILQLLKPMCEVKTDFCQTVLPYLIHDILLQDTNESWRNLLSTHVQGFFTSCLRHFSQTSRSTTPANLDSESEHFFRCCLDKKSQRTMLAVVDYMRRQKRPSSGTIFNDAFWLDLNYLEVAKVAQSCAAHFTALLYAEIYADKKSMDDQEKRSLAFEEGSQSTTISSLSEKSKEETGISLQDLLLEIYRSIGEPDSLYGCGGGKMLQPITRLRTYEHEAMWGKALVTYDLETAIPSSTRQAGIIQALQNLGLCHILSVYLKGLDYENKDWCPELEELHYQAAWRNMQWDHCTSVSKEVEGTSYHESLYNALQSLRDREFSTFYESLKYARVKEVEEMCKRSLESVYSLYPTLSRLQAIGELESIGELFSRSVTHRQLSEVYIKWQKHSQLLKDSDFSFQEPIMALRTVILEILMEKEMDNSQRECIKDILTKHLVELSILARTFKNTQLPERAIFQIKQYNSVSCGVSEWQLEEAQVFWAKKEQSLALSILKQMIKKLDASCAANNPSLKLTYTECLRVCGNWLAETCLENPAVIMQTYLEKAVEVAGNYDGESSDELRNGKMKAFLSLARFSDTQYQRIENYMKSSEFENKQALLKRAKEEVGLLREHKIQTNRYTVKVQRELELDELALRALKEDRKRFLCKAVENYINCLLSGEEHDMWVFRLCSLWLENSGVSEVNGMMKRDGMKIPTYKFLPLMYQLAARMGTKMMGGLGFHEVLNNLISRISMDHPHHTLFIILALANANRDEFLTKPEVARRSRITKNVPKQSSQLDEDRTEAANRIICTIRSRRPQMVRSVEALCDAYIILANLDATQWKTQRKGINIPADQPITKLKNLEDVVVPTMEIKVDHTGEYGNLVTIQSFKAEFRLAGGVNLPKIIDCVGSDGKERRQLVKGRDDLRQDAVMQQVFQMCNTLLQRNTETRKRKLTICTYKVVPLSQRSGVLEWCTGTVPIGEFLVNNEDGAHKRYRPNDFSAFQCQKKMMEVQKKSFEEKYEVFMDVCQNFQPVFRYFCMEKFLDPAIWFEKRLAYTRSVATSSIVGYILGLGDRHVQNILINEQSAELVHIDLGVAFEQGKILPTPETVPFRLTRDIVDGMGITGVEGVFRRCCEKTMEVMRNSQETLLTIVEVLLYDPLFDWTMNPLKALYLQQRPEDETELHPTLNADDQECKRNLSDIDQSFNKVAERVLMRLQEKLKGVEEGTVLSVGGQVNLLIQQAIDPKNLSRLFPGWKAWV
- TEST DETAILS: In vitro ATM inhibition assay (phosphorylation of GSTp53N66 on serine 15, chemiluminescent detection); also: tested normally from 100 µM down to 0.1 nM
- CONDITION LABEL: read-out: IC50 values (the concentration at which 50% of the enzyme activity is inhibited), ATM inhibition
MEASURE: IC50

-- ask Requested read-out: IC50. Entry: O=C(CCCCC1SC[C@@H]2NC(=O)N[C@H]12)NCCCCCC(=O)NCCNCCCN1c2ccccc2Sc2c(-c3cc(=O)cc(N4CCOCC4)o3)cccc21 (some centres unmarked) [Compound 336]
-- reply < 200 nM

-- ask Requested read-out: IC50. Entry: O=C(COc1ccc2c(c1)Sc1cccc(-c3cc(=O)cc(N4CCOCC4)o3)c1S2)NCCN1CCNC1=O [Compound 441]
-- reply < 200 nM

-- ask Requested read-out: IC50. Entry: CC(C)NC(=O)CN1CCN(CCC(=O)Nc2ccc3c(c2)Sc2cccc(-c4cc(=O)cc(N5CCOCC5)o4)c2S3)CC1 [Compound 123]
-- reply < 200 nM

-- ask Requested read-out: IC50. Entry: O=C(CCNCCO)Nc1ccc2c(c1)Sc1cccc(-c3cc(=O)cc(N4CCOCC4)o3)c1S2 [Compound 96]
-- reply < 200 nM

-- ask Requested read-out: IC50. Entry: O=c1cc(-c2cccc3c2Sc2ccccc2N3CCCN2CCCCCC2)oc(N2CCOCC2)c1 [Compound 260]
-- reply < 200 nM

-- ask Requested read-out: IC50. Entry: O=C(COc1ccc2c(c1)Cc1cccc(-c3cc(=O)cc(N4CCOCC4)o3)c1S2)N1CCOCC1 [Compound 494]
-- reply < 200 nM

-- ask Requested read-out: IC50. Entry: O=C(CCN1CCN(c2ncccn2)CC1)Nc1ccc2c(c1)Cc1cccc(-c3cc(=O)cc(N4CCOCC4)o3)c1S2 [Compound 355]
-- reply < 200 nM

-- ask Requested read-out: IC50. Entry: O=c1cc(-c2cccc3c2Sc2ccc(S(=O)(=O)NCC4CCCO4)cc2C3)oc(N2CCOCC2)c1 (centres unmarked) [Compound 455]
-- reply < 200 nM

-- ask Requested read-out: IC50. Entry: O=c1cc(-c2cccc3c2Sc2ccccc2N3CCCN2CCN(CCO)CC2)oc(N2CCOCC2)c1 [Compound 300]
-- reply < 200 nM

-- ask Requested read-out: IC50. Entry: CCN1CCCC1CNCC(=O)Nc1ccc2c(c1)Sc1cccc(-c3cc(=O)cc(N4CCOCC4)o3)c1S2 (centres unmarked) [Compound 87]
-- reply < 200 nM

---

// pIC50 lookup, one value per entry
- TARGET OR TEST SYSTEM: ATM protein immunoprecipitated from HeLa cell nuclear extract (Homo sapiens)
- Construct: ATM protein was immunoprecipitated from HeLa cell nuclear extract; endogenous in cells; host or cells: HeLa cell nuclear extract (immunoprecipitated with rabbit polyclonal anti-ATM antiserum)
- TEST DETAILS: In vitro ATM inhibition assay (phosphorylation of GSTp53N66 on serine 15, chemiluminescent detection); also: tested normally from 100 µM down to 0.1 nM
- Format: biochemical
- CONDITION LABEL: read-out: IC50 values (the concentration at which 50% of the enzyme activity is inhibited), ATM inhibition
pIC50: −log10 of the molar value.

Study these solved cases before continuing.
| COMPOUND | MEASURE | RESULT VALUE |
| --- | --- | --- |
| COCCN1CCN(C(=O)COc2ccc3c(c2)Sc2cccc(-c4cc(=O)cc(N5CCOCC5)o4)c2S3)CC1 | pIC50 | > 6.70 |
| COc1cc(C(=O)Nc2ccc3c(c2)Sc2cccc(-c4cc(=O)cc(N5CCOCC5)o4)c2S3)cc(OC)c1OC | pIC50 | > 6.70 |

Turning now to a further record.
-- ask Return pIC50 measured with ATM protein immunoprecipitated from HeLa cell nuclear extract (Homo sapiens) given this compound: O=C(CCN1CCCCCC1)Nc1ccc2c(c1)Sc1cccc(-c3cc(=O)cc(N4CCOCC4)o3)c1S2
-- reply > 6.70

---

// IC50 lookup, one value per entry
- TARGET OR TEST SYSTEM: ATM protein immunoprecipitated from HeLa cell nuclear extract (Homo sapiens, UniProt Q13315)
- Construct: ATM protein was immunoprecipitated from HeLa cell nuclear extract; endogenous in cells
- TEST DETAILS: In vitro ATM inhibition assay (phosphorylation of GSTp53N66 on serine 15, chemiluminescent detection); also: tested normally from 100 µM down to 0.1 nM
- CONDITION LABEL: read-out: IC50 values (the concentration at which 50% of the enzyme activity is inhibited), ATM inhibition
- Protocol: In order to assess the inhibitory action of the compounds against ATM in vitro, the following assay was used to determine IC50 values. […] Counts per second, following a one second counting time, were recorded for each reaction. The enzyme activity for each compound is then calculated using the following equation: […] Compounds were assayed for ATM inhibition activity using the method described above. […] These are determined over a range of different concentrations, normally from 100 μM down to 0.1 nM. […]

| COMPOUND | IC50 |
| --- | --- |
| O=c1cc(-c2cccc3c2Sc2ccccc2N3CCCN(CCO)CCO)oc(N2CCOCC2)c1 | < 200 nM |

-- ask Requested read-out: IC50. Entry: O=c1cc(-c2cccc3c2Sc2ccc(OCCN4CCN(c5ccccn5)CC4)cc2S3)oc(N2CCOCC2)c1
-- reply < 200 nM

-- ask Requested read-out: IC50. Entry: O=c1cc(-c2cccc3c2Sc2ccccc2N3CCCNCCc2cnc[nH]2)oc(N2CCOCC2)c1
-- reply < 200 nM

-- ask Requested read-out: IC50. Entry: CCN(CC)CCCN1c2ccccc2Sc2c(-c3cc(=O)cc(N4CCOCC4)o3)cccc21
-- reply < 200 nM

---

- TARGET OR TEST SYSTEM: ATM protein immunoprecipitated from HeLa cell nuclear extract (Homo sapiens, UniProt Q13315)
- Construct: ATM protein was immunoprecipitated from HeLa cell nuclear extract; endogenous in cells
- TEST DETAILS: In vitro ATM inhibition assay (phosphorylation of GSTp53N66 on serine 15, chemiluminescent detection); also: tested normally from 100 µM down to 0.1 nM
- CONDITION LABEL: read-out: IC50 values (the concentration at which 50% of the enzyme activity is inhibited), ATM inhibition
// IC50 lookup, one value per entry

Study these solved cases before continuing.
| COMPOUND | MEASURE | RESULT VALUE |
| --- | --- | --- |
| CCN1CCN(C(=O)COc2ccc3c(c2)Sc2cccc(-c4cc(=O)cc(N5CCOCC5)o4)c2S3)CC1 [Compound 438] | IC50 | < 200 nM |
| COc1ccccc1C(=O)Nc1ccc2c(c1)Sc1cccc(-c3cc(=O)cc(N4CCOCC4)o3)c1S2 [Compound 31] | IC50 | < 200 nM |
| CN1CCCN(C(=O)COc2ccc3c(c2)Sc2cccc(-c4cc(=O)cc(N5CCOCC5)o4)c2S3)CC1 [Compound 442] | IC50 | < 200 nM |

-- ask Requested read-out: IC50. Entry: CN(C)CCN1CCN(CC(=O)Nc2ccc3c(c2)Sc2cccc(-c4cc(=O)cc(N5CCOCC5)o4)c2S3)CC1 [Compound 86]
-- reply < 200 nM

---

- TARGET OR TEST SYSTEM: ATM protein immunoprecipitated from HeLa cell nuclear extract (Homo sapiens)
- Construct: ATM protein was immunoprecipitated from HeLa cell nuclear extract; endogenous in cells
- TEST DETAILS: In vitro ATM inhibition assay (phosphorylation of GSTp53N66 on serine 15, chemiluminescent detection); also: tested normally from 100 µM down to 0.1 nM
- CONDITION LABEL: read-out: IC50 values (the concentration at which 50% of the enzyme activity is inhibited), ATM inhibition
// IC50 lookup, one value per entry

| COMPOUND | TARGET OR TEST SYSTEM | IC50 |
| --- | --- | --- |
| CC(=O)N1CCN(CC(=O)Nc2ccc3c(c2)Cc2cccc(-c4cc(=O)cc(N5CCOCC5)o4)c2S3)CC1 | ATM protein immunoprecipitated from HeLa cell nuclear extract (Homo sapiens) | < 200 nM |

-- ask Requested read-out: IC50. Entry: CCCNS(=O)(=O)c1ccc2c(c1)Cc1cccc(-c3cc(=O)cc(N4CCOCC4)o3)c1S2
-- reply < 200 nM

-- ask Requested read-out: IC50. Entry: O=c1cc(-c2cccc3c2Sc2ccc(S(=O)(=O)NCC(F)(F)F)cc2C3)oc(N2CCOCC2)c1
-- reply < 200 nM

-- ask Requested read-out: IC50. Entry: O=C(COc1ccc2c(c1)Cc1cccc(-c3cc(=O)cc(N4CCOCC4)o3)c1S2)N1CCSCC1
-- reply < 200 nM

-- ask Requested read-out: IC50. Entry: CN(C)CCN1CCN(CC(=O)Nc2ccc3c(c2)Cc2cccc(-c4cc(=O)cc(N5CCOCC5)o4)c2S3)CC1
-- reply < 200 nM

-- ask Requested read-out: IC50. Entry: CN1CCN(C(=O)COc2ccc3c(c2)Sc2cccc(-c4cc(=O)cc(N5CCOCC5)o4)c2S3)CC1
-- reply < 200 nM

-- ask Requested read-out: IC50. Entry: O=c1cc(-c2cccc3c2Sc2ccc(OCCNCc4ccncc4)cc2S3)oc(N2CCOCC2)c1
-- reply < 200 nM

-- ask Requested read-out: IC50. Entry: CN1CCCN(CCC(=O)Nc2ccc3c(c2)Sc2cccc(-c4cc(=O)cc(N5CCOCC5)o4)c2S3)CC1
-- reply < 200 nM

-- ask Requested read-out: IC50. Entry: Cc1ccc(N2CCN(CCCN3c4ccccc4Sc4c(-c5cc(=O)cc(N6CCOCC6)o5)cccc43)CC2)c(C)c1
-- reply < 200 nM

-- ask Requested read-out: IC50. Entry: O=C(CNCCN1CCCCC1)Nc1ccc2c(c1)Sc1cccc(-c3cc(=O)cc(N4CCOCC4)o3)c1S2
-- reply < 200 nM

-- ask Requested read-out: IC50. Entry: CC(=O)OCC(=O)Nc1ccc2c(c1)Sc1cccc(-c3cc(=O)cc(N4CCOCC4)o3)c1S2
-- reply < 200 nM

-- ask Requested read-out: IC50. Entry: COCCN(CCOC)C(=O)COc1ccc2c(c1)Sc1cccc(-c3cc(=O)cc(N4CCOCC4)o3)c1S2
-- reply < 200 nM

-- ask Requested read-out: IC50. Entry: O=C(COc1ccc2c(c1)Sc1cccc(-c3cc(=O)cc(N4CCOCC4)o3)c1S2)N1CCN(c2ccccn2)CC1
-- reply < 200 nM

-- ask Requested read-out: IC50. Entry: O=C(CN1CCNCC1)Nc1ccc2c(c1)Sc1cccc(-c3cc(=O)cc(N4CCOCC4)o3)c1S2
-- reply < 200 nM

-- ask Requested read-out: IC50. Entry: CN(C)CCCNCCCN1c2ccccc2Sc2c(-c3cc(=O)cc(N4CCOCC4)o3)cccc21
-- reply < 200 nM

-- ask Requested read-out: IC50. Entry: O=C(COc1ccc2c(c1)Sc1cccc(-c3cc(=O)cc(N4CCOCC4)o3)c1S2)N[C@@H](CO)C(=O)OCc1ccccc1
-- reply < 200 nM
